Sourced from PubChem BioAssay AID2060509

Test system: 485176-168-R4-J1-PDC spheroids with HUVEC/MSC, viability;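 further: spheroids exposed to compounds for seven days before readout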
Test: Anticancer human tumor 485176-168-R4-J1-PDC patient-derived pancreatic adenocarcinoma cell line growth inhibition [GQUAD]; active means viability on the fitted dose curve at most 10% of control; inactive means the rest
Conditions: second compound 3.16 µM; first compound 1 µM
API: response.call in y = active, n = inactive

Reference set, count: 5
Ask | Per the records of this test, what outcome belongs to O=C(NO)c1cnc(N2CCN(S(=O)(=O)c3ccc4ccccc4c3)CC2)nc1 + CN(C)c1ccc(Nc2c3ccc(NC(=O)CCN4CCCC4)cc3nc3cc(NC(=O)CCN4CCCC4)ccc23)cc1 ?
Reply | y

Ask | Dear all, I need the recorded test outcome for COc1cccc2c1C(=O)c1c(O)c3c(c(O)c1C2=O)CC(O)(C(=O)CO)CC3OC1CC(N)C(O)C(C)O1 (stereo unspecified) + Cc1cnc(CNC(=O)c2c(=O)c3ccc(N4CCCN(C)CC4)nc3n3c2sc2ccccc23)cn1 , thank you.
Reply | n

Ask | What did the test return for CC1COCCN1c1cc(C2(O)CC3CCC(C2)O3)c2cnn(-c3ccn[nH]3)c2n1 (stereo unspecified) + CN(C)c1ccc(Nc2c3ccc(NC(=O)CCN4CCCC4)cc3nc3cc(NC(=O)CCN4CCCC4)ccc23)cc1 ?
Reply | n

Ask | Dear all, I need the recorded test outcome for O=c1[nH]cc(F)c(=O)[nH]1 + CN(C)c1ccc(Nc2c3ccc(NC(=O)CCN4CCCC4)cc3nc3cc(NC(=O)CCN4CCCC4)ccc23)cc1 , thank you.
Reply | n

Ask | Would you mind telling me which call this test gave CC(C)n1c(=O)n(C)c2cnc3cc(F)c(-c4ccc(OCCCN5CCCCC5)nc4)cc3c21 + Cc1[nH]c2ccc(F)cc2c1-c1nc2c3cccnc3c3ncccc3c2[nH]1 ?
Reply | n

Next:
Ask | Test call for this compound, please: C=CCn1c(=O)c2cnc(Nc3ccc(N4CCN(C)CC4)cc3)nc2n1-c1cccc(C(C)(C)O)n1 + Cc1[nH]c2ccc(F)cc2c1-c1nc2c3cccnc3c3ncccc3c2[nH]1
Reply | n

Ask | Recorded test call requested for CC1COCCN1c1cc(C2(O)CC3CCC(C2)O3)c2cnn(-c3ccn[nH]3)c2n1 (stereo unspecified) + Cc1cnc(CNC(=O)c2c(=O)c3ccc(N4CCCN(C)CC4)nc3n3c2sc2ccccc23)cn1
Reply | y

Ask | Could you check what this test reported for CC(C)n1c(=O)n(C)c2cnc3cc(F)c(-c4ccc(OCCCN5CCCCC5)nc4)cc3c21 + Cc1cnc(CNC(=O)c2c(=O)c3ccc(N4CCCN(C)CC4)nc3n3c2sc2ccccc23)cn1 ?
Reply | n

Ask | For this compound, state the assay outcome: CC1COCCN1c1cc(C2(S(C)(=N)=O)CC2)nc(-c2ccnc3[nH]ccc23)n1 (stereo unspecified) + Cc1[nH]c2ccc(F)cc2c1-c1nc2c3cccnc3c3ncccc3c2[nH]1
Reply | n

Ask | I would be grateful if you could indicate the recorded call for COc1cc(C2c3cc4c(cc3C(OC3OC5COC(C)OC5C(O)C3O)C3COC(=O)C23)OCO4)cc(OC)c1O (stereo unspecified) + Cc1cnc(CNC(=O)c2c(=O)c3ccc(N4CCCN(C)CC4)nc3n3c2sc2ccccc23)cn1 .
Reply | n

Ask | Check the results log: what was the call for Nc1ccn(C2OC(CO)C(O)C2(F)F)c(=O)n1 (stereo unspecified) + CN(C)c1ccc(Nc2c3ccc(NC(=O)CCN4CCCC4)cc3nc3cc(NC(=O)CCN4CCCC4)ccc23)cc1 ?
Reply | n
